- target or test system: hFSH-R (Homo sapiens)
- protocol text: cAMP accumulation (RIA) in CHO-3D2 cells (hFSH-R), hFSH-induced
- condition details: inhibition of cAMP accumulation induced by hFSH at EC20, CHO-3D2 cells
observed property: IC50 (nM)

Below are worked cases with known answers.
molecule="Cc1cccnc1-c1ccc(C(=O)N2Cc3ccc(C(=O)NCc4cccnc4)n3Cc3ccccc32)cc1 [Example 109]" target_or_test_system="hFSH-R (Homo sapiens)" observed_property=IC50 numeric_value=300
molecule="CNCc1ccccc1-c1ccc(C(=O)N2Cc3ccc(C(=O)NCc4cccnc4)n3Cc3ccccc32)cc1 [Example 42]" target_or_test_system="hFSH-R (Homo sapiens)" observed_property=IC50 numeric_value=2000
molecule="COCc1ccccc1-c1ccc(C(=O)N2Cc3ccc(C(=O)NCc4cccnc4)n3Cc3ccccc32)cc1 [Example 61]" target_or_test_system="hFSH-R (Homo sapiens)" observed_property=IC50 numeric_value=50
molecule="CCOc1ccccc1-c1ccc(C(=O)N2Cc3ccc(C(=O)NCc4cccnc4)n3Cc3ccccc32)cc1C [Example 48]" target_or_test_system="hFSH-R (Homo sapiens)" observed_property=IC50 numeric_value=300
molecule="CC(C)(C)c1ccc(C(=O)N2Cc3ccc(C(=O)NCc4cccnc4)n3Cc3ccccc32)cc1 [Example 80]" target_or_test_system="hFSH-R (Homo sapiens)" observed_property=IC50 numeric_value=1100

[1] O=C(NCc1cccnc1)c1ccc2n1Cc1ccccc1N(C(=O)c1ccc(-c3ncccn3)cc1)C2 [Example 105]
[2] CS(=O)(=O)c1ccccc1-c1ccc(C(=O)N2Cc3ccc(C(=O)NCc4cccnc4)n3Cc3ccccc32)cc1 [Example 15]
input: Looking at recorded values for IC50, does 1 or 2 come in lower? Which one? Tell me its label.
output: 1

----------
- target or test system: human FSH receptor (Homo sapiens, UniProt P23945)
- Sequence (P23945 18-695): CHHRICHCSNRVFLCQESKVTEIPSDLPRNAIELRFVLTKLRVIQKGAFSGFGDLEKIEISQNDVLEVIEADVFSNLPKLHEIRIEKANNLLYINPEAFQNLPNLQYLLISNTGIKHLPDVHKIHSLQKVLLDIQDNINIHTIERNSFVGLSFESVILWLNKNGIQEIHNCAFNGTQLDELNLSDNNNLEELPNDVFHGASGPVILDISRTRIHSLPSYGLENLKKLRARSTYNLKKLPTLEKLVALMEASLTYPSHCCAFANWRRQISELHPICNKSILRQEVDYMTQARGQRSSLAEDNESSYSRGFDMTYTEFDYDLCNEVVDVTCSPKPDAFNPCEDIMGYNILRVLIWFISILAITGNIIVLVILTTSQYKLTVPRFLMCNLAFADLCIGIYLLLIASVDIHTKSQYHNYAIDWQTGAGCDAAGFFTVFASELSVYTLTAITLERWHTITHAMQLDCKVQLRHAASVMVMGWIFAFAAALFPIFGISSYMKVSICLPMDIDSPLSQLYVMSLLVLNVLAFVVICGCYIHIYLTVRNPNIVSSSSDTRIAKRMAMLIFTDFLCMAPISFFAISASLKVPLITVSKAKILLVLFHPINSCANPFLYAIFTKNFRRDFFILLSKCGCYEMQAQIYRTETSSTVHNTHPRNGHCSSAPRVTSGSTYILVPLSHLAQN
- protocol text: FSH receptor-dependent CRE-luciferase reporter gene assay (CHO FSH-R 6CRE-Luc cells)
- condition details: dose-response format in presence of EC50 of purified human FSH; * n=3, ** n=2 averages
- Procedure: FOLLICLE-STIMULATING HORMONE RECEPTOR-DEPENDENT CRE-LUCIFERASE REPORTER GENE ASSAY FOR THE IDENTIFICATION OF FOLLICLE-STIMULATING HORMONE (FSH) ANTAGONISTS […] The treated cells were incubated for 4 hours at 37° C. in a humidified incubator with 5% CO2/95% air. […] Chemiluminescence was detected using a luminometer (EG & G Berthold Microlumat LB 96 P, Wallac, Gaithersburg, Md.) with chemiluminescence measured for 1 sec/well. […] Luciferase activity is expressed as relative light units/sec/well. […]
observed property: IC50 (µM)

molecule=Cc1cc(Cl)ccc1OCC(=O)N1Cc2ccc(C(=O)NCc3cccnc3)n2Cc2ccccc21 target_or_test_system="human FSH receptor (Homo sapiens, UniProt P23945)" observed_property=IC50 units_symbol=µM numeric_value=9.86
molecule=O=C(NCc1cccnc1)c1ccc2n1Cc1ccccc1N(C(=O)c1ccc(-c3ccccc3)cc1)C2 target_or_test_system="human FSH receptor (Homo sapiens, UniProt P23945)" observed_property=IC50 units_symbol=µM numeric_value=2.8
molecule=O=C(NCc1cccnc1)c1ccc2n1Cc1ccccc1N(C(=O)c1ccc(F)c(F)c1)C2 target_or_test_system="human FSH receptor (Homo sapiens, UniProt P23945)" observed_property=IC50 units_symbol=µM numeric_value=31.5

[P] CC(C)C(=O)c1ccccc1-c1ccc(C(=O)N2Cc3ccc(C(=O)NCc4cccnc4)n3Cc3ccccc32)cc1
[Q] Cc1cc(C(=O)N2Cc3ccc(C(=O)NCc4cccnc4)n3Cc3ccccc32)ccc1-c1ccccc1Cl
[R] COC(=O)c1ccccc1-c1ccc(C(=O)N2Cc3ccc(C(=O)NCc4cccnc4)n3Cc3ccccc32)cc1
[S] CC(O)c1ccccc1-c1ccc(C(=O)N2Cc3ccc(C(=O)NCc4cccnc4)n3Cc3ccccc32)cc1 (single isomer, unassigned; (-)) [Example 53]
[T] CC(O)c1ccccc1-c1ccc(C(=O)N2Cc3ccc(C(=O)NCc4cccnc4)n3Cc3ccccc32)cc1 (single isomer, unassigned; (+)) [Example 54]
input: Ascending by IC50, please. List the labels in the requested order.
output: S, T, R, P, Q

[P] O=C(NCc1cccnc1)c1ccc2n1Cc1ccccc1N(C(=O)COc1ccc(Cl)cc1)C2
[Q] COc1ccccc1-c1ccc(C(=O)N2Cc3ccc(C(=O)NCc4cncc(Br)c4)n3Cc3ccccc32)cc1
input: Compare the recorded IC50 of P and Q ; state which is larger. Which one? Tell me its label.
output: P
(P: 15.8 µM, Q: 8.9 µM)

[P] CN(C)Cc1ccccc1-c1ccc(C(=O)N2Cc3ccc(C(=O)NCc4cccnc4)n3Cc3ccccc32)cc1
[Q] O=C(NCc1cccnc1)c1ccc2n1Cc1ccccc1N(C(=O)c1ccc(-c3cccnc3)cc1)C2
input: Compare the recorded IC50 of P and Q ; state which is larger. Which one? Tell me its label.
output: Q

----------
- target or test system: UniProt:P23945
- protocol text: FSH receptor-dependent CRE-luciferase reporter gene assay (CHO FSH-R 6CRE-Luc cells)
- condition details: dose-response format in presence of EC50 of purified human FSH; * n=3, ** n=2 averages
pIC50: −log10 of the molar value.
observed property: pIC50

Below are worked cases with known answers.
molecule=CCN(CC)c1ccc(C(=O)N2Cc3ccc(C(=O)NCc4cccnc4)n3Cc3ccccc32)cc1 numeric_value=5.24
molecule=O=C(NCc1cccnc1)c1ccc2n1Cc1ccccc1N(C(=O)c1ccc(Oc3ccccc3)cc1)C2 numeric_value=4.92
molecule=O=C(NCc1cccnc1)c1ccc2n1Cc1ccccc1N(C(=O)c1cccc(F)c1)C2 numeric_value=4.74
molecule=CNC(=O)c1ccccc1-c1ccc(C(=O)N2Cc3ccc(C(=O)NCc4cccnc4)n3Cc3ccccc32)cc1 numeric_value=4.84

[I] O=C(NCc1cccnc1)c1ccc2n1Cc1ccccc1N(C(=O)c1ccc(NCc3cccnc3)nc1)C2
[II] CN(C)c1ccc(C(=O)N2Cc3ccc(C(=O)NCc4cccnc4)n3Cc3ccccc32)cc1
[III] Cc1cc(C(=O)N2Cc3ccc(C(=O)NCc4cccnc4)n3Cc3ccccc32)ccc1-c1ccccc1C(C)O (stereo not shown)
input: Output the entries ranked by pIC50 from maximum down to minimum. List the labels in the requested order.
output: III, II, I
(III: 6.00, II: 5.24, I: 4.80)
